system under test: AgBbc1
test name: SPOT peptide array binding signal intensity (averaged, normalized) (arbitrary units (background-subtracted, floor 0; scale differs between SH3 domains)); higher = stronger binding of the SH3 domain to the peptide
reported endpoint: SPOT peptide array binding signal intensity
No unit in the answer, only the number.

The examples below pair each entry with its known result.
binder=AATTSTPPLPRRRAT test_result=800
binder=LRIKRKPVQTFFEFI test_result=24.2
binder=GSKSGPPPRPKKPST test_result=780

Field: next binder
Inquiry: Which value of SPOT peptide array binding signal intensity has been reported for AVPPPPPPPPLPESL in the records?
Reply text: 0.5
